Target: Protein kinase C epsilon type (Homo sapiens) (UniProt Q02156)
Sequence (Q02156 whole entry): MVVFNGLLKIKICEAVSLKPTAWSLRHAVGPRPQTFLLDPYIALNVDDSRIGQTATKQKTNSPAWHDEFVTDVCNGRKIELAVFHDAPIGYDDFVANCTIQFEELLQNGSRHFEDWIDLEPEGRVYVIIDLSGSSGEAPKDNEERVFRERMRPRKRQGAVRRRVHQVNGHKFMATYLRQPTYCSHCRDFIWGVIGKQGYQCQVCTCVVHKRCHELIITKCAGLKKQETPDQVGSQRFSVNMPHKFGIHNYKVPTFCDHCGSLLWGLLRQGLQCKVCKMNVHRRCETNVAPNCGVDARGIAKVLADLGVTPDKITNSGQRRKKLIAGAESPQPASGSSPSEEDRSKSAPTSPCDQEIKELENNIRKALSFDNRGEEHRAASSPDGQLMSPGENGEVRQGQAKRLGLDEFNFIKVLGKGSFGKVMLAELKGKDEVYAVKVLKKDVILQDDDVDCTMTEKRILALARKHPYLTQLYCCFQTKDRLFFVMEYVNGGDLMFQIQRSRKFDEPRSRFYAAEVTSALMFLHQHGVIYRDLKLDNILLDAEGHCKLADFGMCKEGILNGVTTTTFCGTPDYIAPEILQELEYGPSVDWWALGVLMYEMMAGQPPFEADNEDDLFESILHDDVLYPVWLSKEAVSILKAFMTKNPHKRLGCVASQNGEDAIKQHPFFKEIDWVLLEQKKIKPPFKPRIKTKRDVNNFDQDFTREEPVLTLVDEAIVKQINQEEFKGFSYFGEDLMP
Experiment: Inhibition of recombinant PKCepsilon (unknown origin)-MBP-tagged RACK2 interaction after 1 hr by ELISA-based assay relative to untreated control
Design: concentration or dose not given beside the values
Details: values are per cent of control
Binarize residual binding, % of control at 60%; below is rule met, at or above is rule not met.

Ask: Does this molecule meet the criterion residual binding, % of control < 60%? CC(=O)c1ccc(NC(=O)c2sc3nc4cc5c(cc4cc3c2N)OCCO5)cc1
Result: rule met

Ask: A record lists COc1ccc(NC(=O)c2sc3nc4ccccc4cc3c2N)cc1 . Is its residual binding, % of control below 60%?
Result: rule met

Ask: In plain terms, does CC(O)c1cccc(NC(=O)C2Sc3nc4cc5c(cc4cc3C2N)OCCO5)c1 (centres undefined) come in under 60% for residual binding, % of control?
Result: rule not met

Ask: Does the reported residual binding, % of control of COc1ccc2nc3sc(C(=O)Nc4ccc(N5CCOCC5)cc4)c(N)c3cc2c1 stay below 60%?
Result: rule met

Ask: Threshold test, residual binding, % of control < 60%: CCOC(=O)Cc1csc(NC(=O)c2sc3nc4ccc(OCC)cc4cc3c2N)n1
Result: rule met

Ask: Given CCOc1ccc2nc(NC(=O)c3sc4nc5cc(OC)ccc5cc4c3N)sc2c1 , is recorded residual binding, % of control strictly lower than 60%?
Result: rule met

Ask: In plain terms, does Nc1c(C(=O)Nc2cccc(Cl)c2Cl)sc2nc3cc4c(cc3cc12)OCCO4 come in under 60% for residual binding, % of control?
Result: rule met

Ask: Please state whether residual binding, % of control is below 60% for CO/N=C(\C)c1cccc(NC(=O)c2sc3nc4cc5c(cc4cc3c2N)OCCO5)c1
Result: rule met

Ask: Is the reported residual binding, % of control for COC(=O)c1cccc(NC(=O)c2sc3nc4cc5c(cc4cc3c2N)OCCO5)c1 strictly below 60%?
Result: rule not met

Ask: Dear colleague, could you confirm whether residual binding, % of control of Nc1c(C(=O)Nc2cccc(Cl)c2)sc2nc3cc4c(cc3cc12)OCCO4 falls below 60%? Thanks.
Result: rule met

Ask: Quick check: does CC(=O)c1cccc(NC(=O)c2cc3cc4cc5c(cc4nc3s2)OCCO5)c1 have residual binding, % of control under 60%?
Result: rule not met

Ask: Hi there! Is residual binding, % of control for CCOC(=O)c1cccc(NC(=O)c2sc3nc4ccc(OC)cc4cc3c2N)c1 below 60%, do you know?
Result: rule met

Ask: Just wondering, is residual binding, % of control of C/C(=N\O)c1cccc(NC(=O)c2sc3nc4cc5c(cc4cc3c2N)OCCO5)c1 below 60%?
Result: rule met

Ask: Consider COC(=O)c1cccc(NC(=O)c2sc3nc4cc5c(cc4cc3c2N)OCO5)c1 . Does its residual binding, % of control lie strictly below 60%?
Result: rule met

Ask: Does the reported residual binding, % of control of CC(=O)c1cccc(NC(=O)c2cc3cc4cc5c(cc4nc3s2)OCO5)c1 stay below 60%?
Result: rule met

###

Assign pIC50 to each entry below.
Target: Protein kinase C epsilon type (Homo sapiens)
Assay: Inhibition of recombinant PKCepsilon (unknown origin)-MBP-tagged RACK2 interaction after 1 hr by ELISA-based assay relative to untreated control
# pIC50 is unitless: minus log10 of the molar concentration; print number only

Ask: Value lookup for pIC50; key = H-EAVSLKPTRRRRRRR-OH
Result: 5.99

Ask: Bench note: what pIC50 did H-EAVSLKPT-OH show?
Result: 5.99
